Sourced from ChEMBL document CHEMBL2150922

Kindly state Ki for each of the entries shown.
# MEASURED TARGET: Asparagine synthetase [glutamine-hydrolyzing] (Homo sapiens, UniProt P08243)
# Sequence (P08243 whole entry): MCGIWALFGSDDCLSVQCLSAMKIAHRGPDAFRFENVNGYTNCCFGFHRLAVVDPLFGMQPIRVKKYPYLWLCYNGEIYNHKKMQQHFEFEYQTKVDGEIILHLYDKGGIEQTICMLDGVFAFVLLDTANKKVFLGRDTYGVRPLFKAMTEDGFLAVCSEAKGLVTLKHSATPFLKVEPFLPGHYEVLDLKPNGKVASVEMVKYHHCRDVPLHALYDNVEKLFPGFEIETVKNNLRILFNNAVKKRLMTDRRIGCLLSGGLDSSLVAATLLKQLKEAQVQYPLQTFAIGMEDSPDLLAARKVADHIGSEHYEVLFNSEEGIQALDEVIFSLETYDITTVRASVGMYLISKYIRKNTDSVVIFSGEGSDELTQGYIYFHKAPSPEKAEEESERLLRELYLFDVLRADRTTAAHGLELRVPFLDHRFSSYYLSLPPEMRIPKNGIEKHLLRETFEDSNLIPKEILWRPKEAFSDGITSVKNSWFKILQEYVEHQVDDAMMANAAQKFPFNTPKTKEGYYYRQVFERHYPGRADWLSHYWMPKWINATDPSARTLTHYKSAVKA
# EXPERIMENT SUMMARY: Inhibition of human recombinant ASNS expressed in Sf9 cells assessed as assessed as initial inhibition constant for ammonia dependent production of inorganic pyrophosphate by spectrophotometry analysis
Numbers only, in nM.

Examples with answers:
molecule="C[S+]([O-])(C[C@H](N)C(=O)O)=NP(=O)(O)OC[C@H]1O[C@@H](n2cnc3c(N)ncnc32)[C@H](O)[C@@H]1O (mixture of isomers)" measured_value=280
molecule="C[S+]([O-])(CCC(=O)O)=NP(=O)(O)OC[C@H]1O[C@@H](n2cnc3c(N)ncnc32)[C@H](O)[C@@H]1O (mixture of isomers)" measured_value=3040

Now for the molecule whose Ki we want.
q: Give its Ki value. Item: C[S+]([O-])(CCN)=NP(=O)(O)OC[C@H]1O[C@@H](n2cnc3c(N)ncnc32)[C@H](O)[C@@H]1O (mixture of isomers)
a: 450

----------
# MEASURED TARGET: Asparagine synthetase [glutamine-hydrolyzing] (Homo sapiens)
# EXPERIMENT SUMMARY: Inhibition of human recombinant ASNS expressed in Sf9 cells assessed as assessed as overall inhibition constant for ammonia dependent production of inorganic pyrophosphate by spectrophotometry analysis
QUANTITY NAME: Ki (nM)
Give bare numbers, in nM.

Examples with answers:
compound="C[S+]([O-])(C[C@H](N)C(=O)O)=NP(=O)(O)OC[C@H]1O[C@@H](n2cnc3c(N)ncnc32)[C@H](O)[C@@H]1O (mixture of isomers)" measured_target="Asparagine synthetase [glutamine-hydrolyzing] (Homo sapiens)" measured_value=2.5
compound="C[S+]([O-])(CCC(=O)O)=NP(=O)(O)OC[C@H]1O[C@@H](n2cnc3c(N)ncnc32)[C@H](O)[C@@H]1O (mixture of isomers)" measured_target="Asparagine synthetase [glutamine-hydrolyzing] (Homo sapiens)" measured_value=310

q: Give its Ki value. Item: C[S+]([O-])(CCN)=NP(=O)(O)OC[C@H]1O[C@@H](n2cnc3c(N)ncnc32)[C@H](O)[C@@H]1O (mixture of isomers)
a: 33
